Experiment: Food effect on administration of sepiapterin: plasma sepiapterin and BH4 concentrations, fasted vs fed
Assay type: in vivo, human
Conditions: human, plasma, oral, 10 mg/kg, fed (high-fat meal); sepiapterin 10 mg/kg oral; 0.5 h; read-out: Concentration in Plasma, Median
The following compounds are listed with their measured concentration at 0.5 h values.
measured.quantity: concentration at 0.5 h (nM)

[[record]]
compound = "C[C@H](O)[C@H](O)[C@H]1CNc2nc(N)[nH]c(=O)c2N1 [BH4, Tetrahydrobiopterin]"
measured_quantity = "concentration at 0.5 h"
result = 30.9

[[record]]
compound = "C[C@H](O)C(=O)C1=Nc2c(nc(N)[nH]c2=O)NC1 [sepiapterin, Sepiapterin]"
measured_quantity = "concentration at 0.5 h"
result = 0


* * *

The following compounds are listed with their measured concentration at 0 h values.
Test: Food effect on administration of sepiapterin: plasma sepiapterin and BH4 concentrations, fasted vs fed
Format: in vivo, human
Conditions: human, plasma, oral, 10 mg/kg, fasted; sepiapterin 10 mg/kg oral; 0 h (predose); read-out: Concentration in Plasma, Maximum
measured.quantity: concentration at 0 h (nM)

[[record]]
compound = "C[C@H](O)C(=O)C1=Nc2c(nc(N)[nH]c2=O)NC1 [sepiapterin, Sepiapterin]"
measured_quantity = "concentration at 0 h"
units = "nM"
result = 0

[[record]]
compound = "C[C@H](O)[C@H](O)[C@H]1CNc2nc(N)[nH]c(=O)c2N1 [BH4, Tetrahydrobiopterin]"
measured_quantity = "concentration at 0 h"
units = "nM"
result = 9


* * *

Experiment: Pharmacokinetic analysis of multiple doses of sepiapterin (once daily for 7 days, fed subjects)
Assay type: in vivo, human
Conditions: human, plasma, 60 mg/kg, Day 7; sepiapterin 60 mg/kg once daily; fed; read-out: Cmax
measured.quantity: Cmax (ng/mL)

[[record]]
molecule = "C[C@H](O)[C@H](O)[C@H]1CNc2nc(N)[nH]c(=O)c2N1 [BH4, Tetrahydrobiopterin]"
measured_quantity = "Cmax"
units = "ng/mL"
result = 678


* * *

Experiment: Pharmacokinetic analysis of multiple doses of sepiapterin (once daily for 7 days, fed subjects)
Assay type: in vivo, human
Conditions: human, plasma, 60 mg/kg, Day 1; sepiapterin 60 mg/kg once daily; fed; read-out: AUC0-24
measured.quantity: AUC(0-t)

[[record]]
compound = "C[C@H](O)[C@H](O)[C@H]1CNc2nc(N)[nH]c(=O)c2N1 [BH4, Tetrahydrobiopterin]"
result = "4560 ng·h/mL"


* * *

The following compounds are listed with their measured concentration at 4 h values.
Assay: Food effect on administration of sepiapterin: plasma sepiapterin and BH4 concentrations, fasted vs fed
Assay type: in vivo, human
Settings: human, plasma, oral, 10 mg/kg, fed (high-fat meal); sepiapterin 10 mg/kg oral; 4 h; read-out: Concentration in Plasma, Minimum
measured.quantity: concentration at 4 h

[[record]]
compound = "C[C@H](O)[C@H](O)[C@H]1CNc2nc(N)[nH]c(=O)c2N1 [BH4, Tetrahydrobiopterin]"
result = "751 nM"

[[record]]
compound = "C[C@H](O)C(=O)C1=Nc2c(nc(N)[nH]c2=O)NC1 [sepiapterin, Sepiapterin]"
result = "0 nM"


* * *

Assay: Food effect on administration of sepiapterin: plasma sepiapterin and BH4 concentrations, fasted vs fed
Assay type: in vivo, human
Conditions: human, plasma, oral, 10 mg/kg, fasted; sepiapterin 10 mg/kg oral; 1 h; read-out: Concentration in Plasma, Maximum
Protocol: Method: Subjects received 2 oral doses of sepiapterin (10 mg/kg) separated by 1 week in a fasted and fed state. […] Sampling for PK analysis occurred predose on Days 1 and 8 (within 30 minutes before dosing) and 0.5 hr, 1 hr, 2 hr, 4 hr, 8 hr, 12 hr, and 24 hr after the doses on Days 1 and 8. The blood concentrations of sepiapterin and BH4 were analyzed by MNG Labs.
measured.quantity: concentration at 1 h (nM)

[[record]]
compound = "C[C@H](O)C(=O)C1=Nc2c(nc(N)[nH]c2=O)NC1 [sepiapterin, Sepiapterin]"
result = 10.2

[[record]]
compound = "C[C@H](O)[C@H](O)[C@H]1CNc2nc(N)[nH]c(=O)c2N1 [BH4, Tetrahydrobiopterin]"
result = 223


* * *

Test: Food effect on administration of sepiapterin: plasma sepiapterin and BH4 concentrations, fasted vs fed
Format: in vivo, human
Conditions: human, plasma, oral, 10 mg/kg, fed (high-fat meal); sepiapterin 10 mg/kg oral; 2 h; read-out: Concentration in Plasma, Maximum
measured.quantity: concentration at 2 h (nM)

[[record]]
compound = "C[C@H](O)C(=O)C1=Nc2c(nc(N)[nH]c2=O)NC1 [sepiapterin, Sepiapterin]"
result = 5.92

[[record]]
compound = "C[C@H](O)[C@H](O)[C@H]1CNc2nc(N)[nH]c(=O)c2N1 [BH4, Tetrahydrobiopterin]"
result = 1200


* * *

The following molecules are listed with their measured concentration at 12 h values.
Experiment: Food effect on administration of sepiapterin: plasma sepiapterin and BH4 concentrations, fasted vs fed
Assay type: in vivo, human
Conditions: human, plasma, oral, 10 mg/kg, fasted; sepiapterin 10 mg/kg oral; 12 h; read-out: Concentration in Plasma, Mean
measured.quantity: concentration at 12 h

[[record]]
molecule = "C[C@H](O)[C@H](O)[C@H]1CNc2nc(N)[nH]c(=O)c2N1 [BH4, Tetrahydrobiopterin]"
measured_quantity = "concentration at 12 h"
result = "85.9 nM"

[[record]]
molecule = "C[C@H](O)C(=O)C1=Nc2c(nc(N)[nH]c2=O)NC1 [sepiapterin, Sepiapterin]"
measured_quantity = "concentration at 12 h"
result = "0 nM"


* * *

Assay: Pharmacokinetic analysis of multiple doses of sepiapterin (once daily for 7 days, fed subjects)
Type: in vivo, human
Details: human, plasma; Day 1; sepiapterin 60 mg/kg once daily; fed
measured.quantity: AUC(0-inf) (ng·h/mL)

[[record]]
compound = "C[C@H](O)[C@H](O)[C@H]1CNc2nc(N)[nH]c(=O)c2N1 [BH4, Tetrahydrobiopterin]"
measured_quantity = "AUC(0-inf)"
units = "ng·h/mL"
result = 4670


* * *

Assay: Food effect on administration of sepiapterin: plasma sepiapterin and BH4 concentrations, fasted vs fed
Type: in vivo, human
Details: human, plasma, oral, 10 mg/kg, fasted; sepiapterin 10 mg/kg oral; 8 h; read-out: Concentration in Plasma, Maximum
measured.quantity: concentration at 8 h (nM)

[[record]]
molecule = "C[C@H](O)[C@H](O)[C@H]1CNc2nc(N)[nH]c(=O)c2N1 [BH4, Tetrahydrobiopterin]"
units = "nM"
result = 457

[[record]]
molecule = "C[C@H](O)C(=O)C1=Nc2c(nc(N)[nH]c2=O)NC1 [sepiapterin, Sepiapterin]"
units = "nM"
result = 0


* * *

Test: Food effect on administration of sepiapterin: plasma sepiapterin and BH4 concentrations, fasted vs fed
Type: in vivo, human
Conditions: human, plasma, oral, 10 mg/kg, fed (high-fat meal); sepiapterin 10 mg/kg oral; 8 h; read-out: Concentration in Plasma, Mean
measured.quantity: concentration at 8 h (nM)

[[record]]
compound = "C[C@H](O)C(=O)C1=Nc2c(nc(N)[nH]c2=O)NC1 [sepiapterin, Sepiapterin]"
units = "nM"
result = 0.18

[[record]]
compound = "C[C@H](O)[C@H](O)[C@H]1CNc2nc(N)[nH]c(=O)c2N1 [BH4, Tetrahydrobiopterin]"
units = "nM"
result = 520


* * *

Experiment: Food effect on administration of sepiapterin: plasma sepiapterin and BH4 concentrations, fasted vs fed
Assay type: in vivo, human
Conditions: human, plasma, oral, 10 mg/kg, fasted; sepiapterin 10 mg/kg oral; 24 h; read-out: Concentration in Plasma, Minimum
The following compounds are listed with their measured concentration at 24 h values.
measured.quantity: concentration at 24 h (nM)

[[record]]
compound = "C[C@H](O)C(=O)C1=Nc2c(nc(N)[nH]c2=O)NC1 [sepiapterin, Sepiapterin]"
measured_quantity = "concentration at 24 h"
units = "nM"
result = 0

[[record]]
compound = "C[C@H](O)[C@H](O)[C@H]1CNc2nc(N)[nH]c(=O)c2N1 [BH4, Tetrahydrobiopterin]"
measured_quantity = "concentration at 24 h"
units = "nM"
result = 8.5


* * *

The following compounds are listed with their measured concentration at 8 h values.
Assay: Food effect on administration of sepiapterin: plasma sepiapterin and BH4 concentrations, fasted vs fed
Type: in vivo, human
Details: human, plasma, oral, 10 mg/kg, fasted; sepiapterin 10 mg/kg oral; 8 h; read-out: Concentration in Plasma, Median
measured.quantity: concentration at 8 h (nM)

[[record]]
compound = "C[C@H](O)C(=O)C1=Nc2c(nc(N)[nH]c2=O)NC1 [sepiapterin, Sepiapterin]"
units = "nM"
result = 0

[[record]]
compound = "C[C@H](O)[C@H](O)[C@H]1CNc2nc(N)[nH]c(=O)c2N1 [BH4, Tetrahydrobiopterin]"
units = "nM"
result = 233


* * *

Experiment: Food effect on administration of sepiapterin: plasma sepiapterin and BH4 concentrations, fasted vs fed
Assay type: in vivo, human
Conditions: human, plasma, oral, 10 mg/kg, fasted; sepiapterin 10 mg/kg oral; 1 h; read-out: Concentration in Plasma, Mean
measured.quantity: concentration at 1 h (nM)

[[record]]
compound = "C[C@H](O)C(=O)C1=Nc2c(nc(N)[nH]c2=O)NC1 [sepiapterin, Sepiapterin]"
result = 5.43

[[record]]
compound = "C[C@H](O)[C@H](O)[C@H]1CNc2nc(N)[nH]c(=O)c2N1 [BH4, Tetrahydrobiopterin]"
result = 155


Origin of values: patent US20220362249A1
